test system: HT29 RAMS11 overexpressing cells; assay: High-throughput viability assay (resazurin), 119 FDA-approved anticancer drugs, RAMS11 overexpressing cells (Clone1, Clone2); details: OE1 (RAMS11 overexpression clone 1), 1 uM drug, 72 h, vs empty vector control
Where a name gives a salt, the structure may show the parent alone.
Experimental endpoint: Viability Fold Change
Field format: numeric only.

The measured Viability Fold Change that Cc1ccc(-c2cc(C(F)(F)F)nn2-c2ccc(S(N)(=O)=O)cc2)cc1 [Celecoxib] showed for HT29 RAMS11 overexpressing cells is 0.9228

The measured Viability Fold Change that CC[C@]1(O)C[C@@H]2CN(CCc3c([nH]c4ccccc34)[C@@](C(=O)OC)(c3cc4c(cc3OC)N(C)[C@H]3[C@@](O)(C(=O)OC)[C@H](OC(C)=O)[C@]5(CC)C=CCN6CC[C@]43[C@@H]65)C2)C1 [Vinblastine sulfate] showed for HT29 RAMS11 overexpressing cells is 3.402

The measured Viability Fold Change that CN(C)C/C=C/C(=O)Nc1cc2c(Nc3ccc(F)c(Cl)c3)ncnc2cc1O[C@H]1CCOC1 [Afatinib] showed for HT29 RAMS11 overexpressing cells is 1.121

The measured Viability Fold Change that CCN(CC)CCNC(=O)c1c(C)[nH]c(/C=C2\C(=O)Nc3ccc(F)cc32)c1C [Sunitinib] showed for HT29 RAMS11 overexpressing cells is 0.8856

The measured Viability Fold Change that COc1cc2c(Nc3ccc(Br)cc3F)ncnc2cc1OCC1CCN(C)CC1 [Vandetanib] showed for HT29 RAMS11 overexpressing cells is 0.8127

* * *

system: HT29 RAMS11 overexpressing cells; assay: High-throughput viability assay (resazurin), 119 FDA-approved anticancer drugs, RAMS11 overexpressing cells (Clone1, Clone2); conditions: OE1 (RAMS11 overexpression clone 1), 0.1 uM drug, 72 h, vs empty vector control
Experimental endpoint: Viability Fold Change
Field format: numeric only.

The measured Viability Fold Change that N.N.[Cl][Pt][Cl] [Cisplatin] showed for HT29 RAMS11 overexpressing cells is 1.023

The measured Viability Fold Change that O=c1[nH]cc(F)c(=O)[nH]1 [5-FU, fluorouracil, reference compound] showed for HT29 RAMS11 overexpressing cells is 0.9856

The measured Viability Fold Change that O=NN(CCCl)C(=O)NC1CCCCC1 [Lomustine] showed for HT29 RAMS11 overexpressing cells is 0.9969
